test system: Staphylococcus aureus; test: Antibacterial activity against Staphylococcus aureus SG 511 after 24 hrs by two fold serial dilution method; type: functional; details: SG 511, 24 h
Binary call on MIC with cut-off 10 µg/mL: strictly below means criterion met, and equality or higher means criterion not met.

Example cases with answers are listed next.
>>> answerlabel("O=c1[nH]cc(-c2c[nH]c3ccccc23)nc1-c1c[nH]c2cc(Br)ccc12")
"criterion met"
>>> answerlabel("O=C1NC[C@@H](c2c[nH]c3ccccc23)N[C@H]1c1c[nH]c2cc(Br)ccc12")
"criterion not met"
>>> answerlabel("O=C1NC[C@H](c2c[nH]c3cc(Br)ccc23)N[C@@H]1c1c[nH]c2cc(Br)ccc12")
"criterion not met"
>>> answerlabel("O=C(NCC(=O)c1c[nH]c2ccccc12)C(=O)c1c[nH]c2cc(Br)ccc12")
"criterion not met"
>>> answerlabel("CN(C)[C@@H]1C(O)=C(C(N)=O)C(=O)[C@@]2(O)C(O)=C3C(=O)c4c(O)cccc4[C@@](C)(O)[C@H]3C[C@@H]12 [TETRACYCLINE]")
"criterion met"

Exercise: Report whether reported MIC is lower than 10 µg/mL (strictly) for O=C(NCC(=O)c1c[nH]c2cc(Br)ccc12)C(=O)c1c[nH]c2cc(Br)ccc12
Solution: criterion not met

Exercise: Report whether reported MIC is lower than 10 µg/mL (strictly) for O=C1NC[C@H](c2c[nH]c3ccccc23)N[C@@H]1c1c[nH]c2cc(Br)ccc12
Solution: criterion not met

meta.source: ChEMBL document CHEMBL4428104
